Data provenance is patent US20190218277A1.

Target: T1, Recombinant soluble E protein (0.8E-His) from DENV-3 (DENV-3, UniProt P27915 281-673)
T1 construct: also called DENV-3 E protein; DV3
MEASUREMENT NAME: Kd (pM)
Value expressed in pM; do not type the unit.

Query block: Assign Kd to the following record: DG_3CH1046-SG182/3CL012-SK1 (antibody, V domains shown) VH: QVQLVQSGAEVKKPGASVKVSCKASGYTFTSYYMHWVRQAPGQGLEWMGVINPRGGSRRSAQKFQGRVTMTRDTSTSTVYMELSSLRSEDTAVYYCARGGRALFYDSYTTPFDGGSWWFDPWGQGSLVTVSS VL: DIQLTQSPSSLSASVGDRVTFTCQASQDIRKYLNWYQQKPGKAPKLLIYDASNLKTGVPSRFSGSGSGTDFTFTISSLQPEDVATYYCQQFEDLPITFGQGTRLQIKR
Result block: 0.145

Query block: Assign Kd to the following record: DG_3CH1049-SG182/3CL633-SK1 (antibody, V domains shown) VH: QVQLVQSGAEVKKPGASVKVSCKASGYTFTSYYMHWVRQAPGQGLEWMGVINPRGGSRRSAQKFQGRVTMTRDTSTSTVYMELSSLRSEDTAVYYCARGGEALFYDSYTTPFDGGSWWFDPWGQGSLVTVSS VL: DIQLTQSPSSLSASVGDRVTITCQASQDIRKYLNWYQQKPGKAPKLLIYDASNLKTGVPSRFSGSGSGTDFTLTISSLQPEDVATYYCQQFDDLPITFGQGTRLQIKR
Result block: 4.1

Query block: Assign Kd to the following record: DG_3CH992-SG182/3CL633-SK1 (antibody, V domains shown) VH: QVQLVQSGAEVKKPGASVKVSCKASGYTFTSYYIHWVRQAPGQGLEWMGVINPRGGSRRSAQKFQGRVTMTRDTSTSTVYMELSSLRSEDTAVYYCARGGRALFYDSYTTPFDGGSWWFDPWGQGSLVTVSS VL: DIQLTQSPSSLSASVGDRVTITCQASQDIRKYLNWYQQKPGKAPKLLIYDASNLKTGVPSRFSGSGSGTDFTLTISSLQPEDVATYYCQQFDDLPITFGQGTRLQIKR
Result block: 2.95
